outcome measure: melting point

INSERT INTO assay_data (compound, outcome_measure, observed_result) VALUES
  ('CON=C(c1ccccc1)c1cccc(C2=NN(CC(F)(F)F)C(=O)CN2)c1 [Compound 75]', 'melting point', '119 to 123 °C'),
  ('O=c1cnc(-c2cc(Br)cc(-c3ccsc3)c2)nn1CC(F)(F)F [Compound 84]', 'melting point', '180 to 182 °C'),
  ('CON=C(c1ccccc1)c1cccc(-c2ncc(=O)n(CC(F)(F)F)n2)c1 [Compound 94]', 'melting point', '127 to 129 °C'),
  ('O=C1C(SC2CCCCC2)NC(c2cccc(I)c2)=NN1CC(F)(F)F (centres unmarked) [Compound 49]', 'melting point', '172 to 173 °C'),
  ('O=C1CNC(c2cc(Br)cc(-c3ccsc3)c2)=NN1CC(F)(F)F [Compound 67]', 'melting point', '167 to 169 °C'),
  ('C[Si](C)(C)C#CCn1nc(-c2ccc(F)c(Br)c2)ncc1=O [Compound 96]', 'melting point', '103 to 105 °C'),
  ('O=c1cnc(-c2cc(-c3ccsc3)cc(-c3ccsc3)c2)nn1CC(F)(F)F [Compound 80]', 'melting point', '189 to 191 °C'),
  ('O=C1CNC(c2cccc(Cc3ccccc3)c2)=NN1CC(F)(F)F [Compound 73]', 'melting point', '104 to 106 °C'),
  ('O=C1CNC(c2cc(-c3ccsc3)cc(-c3ccsc3)c2)=NN1CC(F)(F)F [Compound 61]', 'melting point', '180 to 182 °C'),
  ('O=c1cnc(-c2cccc(Cc3ccccc3)c2)nn1CC(F)(F)F [Compound 91]', 'melting point', '95 to 96 °C'),
  ('O=c1cnc(-c2cccc(C(=NOCc3ccccc3)c3ccccc3)c2)nn1CC(F)(F)F [Compound 95]', 'melting point', '139 to 140 °C');

* * *

- System: Pyricularia oryzae
- experiment description: whole plant or invertebrate
- Assay type: in vivo
- conditions: 24 h, read-out: PYRIOR percent control rating
Quick reference for pest or weed control at 200 ppm among some compounds
outcome measure: pest or weed control at 200 ppm

INSERT INTO assay_data (compound, target_or_test_system, outcome_measure, observed_result) VALUES
  ('Cc1cc(C)cc(C2=NN(CC(F)(F)F)C(=O)C(SCCO)N2)c1 (stereo not drawn) [Compound 38]', 'Pyricularia oryzae', 'pest or weed control at 200 ppm', '80 to 100%'),
  ('O=C(c1ccccc1)c1cccc(C2=NN(CC(F)(F)F)C(=O)C(SC3CCCCC3)N2)c1 (stereo not drawn) [Compound 54]', 'Pyricularia oryzae', 'pest or weed control at 200 ppm', '80 to 100%'),
  ('O=C1CNC(c2cccc(Oc3nnnn3-c3ccccc3)c2)=NN1CC(F)(F)F [Compound 28]', 'Pyricularia oryzae', 'pest or weed control at 200 ppm', '50 to 79%'),
  ('CCCCn1nc(-c2cc(-c3ccsc3)cc(-c3ccsc3)c2)ncc1=O [Compound 81]', 'Pyricularia oryzae', 'pest or weed control at 200 ppm', '0 to 49%'),
  ('O=C1C(SC2CCCCC2)NC(c2ccc(F)c(-c3ccccc3)c2)=NN1CC(F)(F)F (stereo not drawn) [Compound 48]', 'Pyricularia oryzae', 'pest or weed control at 200 ppm', '80 to 100%'),
  ('O=C1CNC(c2cccc(Oc3nc4ccc(Cl)cc4s3)c2)=NN1CC(F)(F)F [Compound 27]', 'Pyricularia oryzae', 'pest or weed control at 200 ppm', '80 to 100%'),
  ('N#CCCN1N=C(c2cccc(OCc3ccccc3)c2)NCC1=O [Compound 18]', 'Pyricularia oryzae', 'pest or weed control at 200 ppm', '50 to 79%'),
  ('Cc1cc(C)cc(C2=NN(CCO)C(=O)CN2)c1 [Compound 2]', 'Pyricularia oryzae', 'pest or weed control at 200 ppm', '80 to 100%'),
  ('O=C1CNC(c2cccc(/C=C\c3ccccc3)c2)=NN1CC(F)(F)F [Compound 71]', 'Pyricularia oryzae', 'pest or weed control at 200 ppm', '50 to 79%'),
  ('O=C1CNC(c2ccc(Cl)c(Cl)c2)=NN1C(=O)C(F)(F)F [Compound 10]', 'Pyricularia oryzae', 'pest or weed control at 200 ppm', '80 to 100%'),
  ('O=C1CNC(c2cc(Cl)cc(Cl)c2)=NN1C(=O)C(F)(F)F [Compound 11]', 'Pyricularia oryzae', 'pest or weed control at 200 ppm', '50 to 79%'),
  ('O=c1cnc(-c2ccc(Oc3cccnc3)cc2)nn1CC(F)(F)F [Compound 78]', 'Pyricularia oryzae', 'pest or weed control at 200 ppm', '80 to 100%'),
  ('O=C(Nc1c(Cl)cccc1Cl)Oc1cccc(C2=NN(CC(F)(F)F)C(=O)CN2)c1 [Compound 25]', 'Pyricularia oryzae', 'pest or weed control at 200 ppm', '0 to 49%'),
  ('O=C1CNC(c2csc(-c3ccccc3)c2)=NN1CC(F)(F)F [Compound 60]', 'Pyricularia oryzae', 'pest or weed control at 200 ppm', '80 to 100%'),
  ('CON=C(c1ccccc1)c1cccc(-c2ncc(=O)n(CC(F)(F)F)n2)c1 [Compound 94]', 'Pyricularia oryzae', 'pest or weed control at 200 ppm', '80 to 100%'),
  ('O=C1CNC(c2cccc(O)c2)=NN1CC(F)(F)F [Compound 22]', 'Pyricularia oryzae', 'pest or weed control at 200 ppm', '0 to 49%'),
  ('O=C1CNC(c2cccc(-c3ccc(Cl)s3)c2)=NN1CC(F)(F)F [Compound 29]', 'Pyricularia oryzae', 'pest or weed control at 200 ppm', '50 to 79%'),
  ('Cc1cc(C)cc(C2=NN(CC(F)(F)F)C(=O)C(SCc3ccccc3)N2)c1 (stereo not drawn) [Compound 36]', 'Pyricularia oryzae', 'pest or weed control at 200 ppm', '80 to 100%');

* * *

- Tested on: Colletotricum lagenarium
- experiment description: Cucumber Anthracnose greenhouse one-day protectant test
- Assay type: in vivo
- conditions: Cucumis sativus, 24 h, cucumber plants, one-day protectant test, 200 ppm application rate; read-out: COLLLA percent control rating
outcome measure: pest or weed control at 200 ppm

INSERT INTO assay_data (molecule, outcome_measure, observed_result) VALUES
  ('O=C1CNC(c2cccc(-c3ccc(Oc4ccccc4)cc3)c2)=NN1CC(F)(F)F [Compound 30]', 'pest or weed control at 200 ppm', '0 to 49%'),
  ('O=C1CNC(c2cccc(OCc3ccccc3)c2)=NN1Cc1ccccc1 [Compound 20]', 'pest or weed control at 200 ppm', '0 to 49%'),
  ('Cc1ccccc1-c1cccc(C2=NN(CC(F)(F)F)C(=O)C(SC3CCCCC3)N2)c1 (centres unmarked) [Compound 51]', 'pest or weed control at 200 ppm', '50 to 79%'),
  ('CNc1cc(F)nc(Oc2cccc(C3=NN(CC(F)(F)F)C(=O)CN3)c2)n1 [Compound 32]', 'pest or weed control at 200 ppm', '0 to 49%'),
  ('CON=C(c1ccccc1)c1cccc(-c2ncc(=O)n(CC(F)(F)F)n2)c1 [Compound 94]', 'pest or weed control at 200 ppm', '0 to 49%'),
  ('O=C1CNC(c2cccc(OCc3ccccc3)c2)=NN1CC(F)(F)F [Compound 17]', 'pest or weed control at 200 ppm', '80 to 100%'),
  ('O=C1CNC(c2cccc(Oc3nc4ccc(Cl)cc4s3)c2)=NN1CC(F)(F)F [Compound 27]', 'pest or weed control at 200 ppm', '50 to 79%'),
  ('O=C1C(SC2CCCCC2)NC(c2cccc(-c3ccsc3)c2)=NN1CC(F)(F)F (centres unmarked) [Compound 55]', 'pest or weed control at 200 ppm', '50 to 79%');

* * *

- Tested on: Pyricularia oryzae
- experiment description: whole plant or invertebrate
- Format: in vivo
- conditions: 24 h, read-out: PYRIOR percent control rating
Quick reference for pest or weed control at 200 ppm among some compounds
outcome measure: pest or weed control at 200 ppm

INSERT INTO measurements (compound, target_or_test_system, observed_result) VALUES
  ('CS(=O)(=O)OCCN1N=C(c2ccc(Cl)nc2)NCC1=O [Compound 1]', 'Pyricularia oryzae', '50 to 79%'),
  ('O=c1cnc(-c2csc(-c3ccccc3)c2)nn1CC(F)(F)F [Compound 79]', 'Pyricularia oryzae', '80 to 100%'),
  ('Cc1cc(C2=NN(CC(F)(F)F)C(=O)C(SC3CCCCC3)N2)ccc1Br (centres unmarked) [Compound 43]', 'Pyricularia oryzae', '80 to 100%'),
  ('Cc1cc(C)cc(C2=NN(Cc3c(F)c(F)c(F)c(F)c3F)C(=O)CN2)c1 [Compound 63]', 'Pyricularia oryzae', '50 to 79%'),
  ('O=c1cnc(-c2cc(Br)cc(-c3ccsc3)c2)nn1CC(F)(F)F [Compound 84]', 'Pyricularia oryzae', '80 to 100%');
